Value source: ChEMBL document CHEMBL1158870

Tested on: EKVX
Assay: Cytotoxicity against human EKVX cells by SRB assay
Assay type: functional
# GI50 values compiled below

smilesString	GI50 [µM]
COC(C)(C)[C@@H](O)[C@H]1C[C@H](C)[C@@]2(CC[C@]3(C)[C@@H]2CC[C@@H]2[C@@]4(C)CC[C@@H](OC(C)=O)C(C)(C)[C@@H]4C[C@@H](O[C@@H]4O[C@H](COC(C)=O)[C@@H](O)[C@H](O)[C@H]4O)[C@]23C)O1	5.5
C=C(C)[C@@H](O)[C@H](O)C[C@H](C)[C@@H]1CC[C@]2(C)C1=CC[C@@H]1[C@@]3(C)CC[C@@H](OC(C)=O)C(C)(C)[C@@H]3C[C@@H](O[C@@H]3O[C@H](COC(C)=O)[C@@H](O)[C@H](O)[C@H]3O)[C@]12C	3.16
CC(=O)OC[C@H]1O[C@@H](O[C@@H]2C[C@H]3C(C)(C)[C@H](OC(C)=O)CC[C@]3(C)[C@H]3CC[C@@H]4[C@]5(CC[C@@]4(C)[C@@]32C)O[C@@H]([C@H](O)C(C)(C)O)C[C@@H]5C)[C@H](O)[C@@H](O)[C@@H]1O	9.55
COC(C)(C)[C@@H](O)[C@H](O)C[C@H](C)C1=C2CC[C@@H]3[C@@]4(C)CC[C@@H](OC(C)=O)C(C)(C)[C@@H]4C[C@@H](O[C@@H]4O[C@H](COC(C)=O)[C@@H](O)[C@H](O)[C@H]4O)[C@@]3(C)[C@]2(C)CC1	12.9

====

GI50 overview
Tested on: SR
Experiment: Cytotoxicity against human SR cells by SRB assay
Format: functional

smilesString	tgt	GI50 (nM)
COC(C)(C)[C@@H](O)[C@H]1C[C@H](C)[C@@]2(CC[C@]3(C)[C@@H]2CC[C@@H]2[C@@]4(C)CC[C@@H](OC(C)=O)C(C)(C)[C@@H]4C[C@@H](O[C@@H]4O[C@H](COC(C)=O)[C@@H](O)[C@H](O)[C@H]4O)[C@]23C)O1	SR	2190
C=C(C)[C@@H](O)[C@H](O)C[C@H](C)[C@@H]1CC[C@]2(C)C1=CC[C@@H]1[C@@]3(C)CC[C@@H](OC(C)=O)C(C)(C)[C@@H]3C[C@@H](O[C@@H]3O[C@H](COC(C)=O)[C@@H](O)[C@H](O)[C@H]3O)[C@]12C	SR	1910
CC(=O)OC[C@H]1O[C@@H](O[C@@H]2C[C@H]3C(C)(C)[C@H](OC(C)=O)CC[C@]3(C)[C@H]3CCC4=C([C@@H](C)C[C@@H](O)[C@H](O)C(C)(C)O)CC[C@@]4(C)[C@@]32C)[C@H](O)[C@@H](O)[C@@H]1O	SR	12300
CC(=O)OC[C@H]1O[C@@H](O[C@@H]2C[C@H]3C(C)(C)[C@H](OC(C)=O)CC[C@]3(C)[C@H]3CC[C@@H]4[C@]5(CC[C@@]4(C)[C@@]32C)O[C@@H]([C@H](O)C(C)(C)O)C[C@@H]5C)[C@H](O)[C@@H](O)[C@@H]1O	SR	3090

====

Tested on: HCT-15
Experiment: Cytotoxicity against human HCT15 cells by SRB assay
Format: functional
Listing: TGI of selected compounds
propertyLabel: TGI

compound	propertyLabel	recordedResult
COC(C)(C)[C@@H](O)[C@H]1C[C@H](C)[C@@]2(CC[C@]3(C)[C@@H]2CC[C@@H]2[C@@]4(C)CC[C@@H](OC(C)=O)C(C)(C)[C@@H]4C[C@@H](O[C@@H]4O[C@H](COC(C)=O)[C@@H](O)[C@H](O)[C@H]4O)[C@]23C)O1	TGI	5.6 µM
CC(=O)OC[C@H]1O[C@@H](O[C@@H]2C[C@H]3C(C)(C)[C@H](OC(C)=O)CC[C@]3(C)[C@H]3CC[C@@H]4[C@]5(CC[C@@]4(C)[C@@]32C)O[C@@H]([C@H](O)C(C)(C)O)C[C@@H]5C)[C@H](O)[C@@H](O)[C@@H]1O	TGI	5.9 µM
C=C(C)[C@@H](O)[C@H](O)C[C@H](C)[C@@H]1CC[C@]2(C)C1=CC[C@@H]1[C@@]3(C)CC[C@@H](OC(C)=O)C(C)(C)[C@@H]3C[C@@H](O[C@@H]3O[C@H](COC(C)=O)[C@@H](O)[C@H](O)[C@H]3O)[C@]12C	TGI	10 µM
CC(=O)OC[C@H]1O[C@@H](O[C@@H]2C[C@H]3C(C)(C)[C@H](OC(C)=O)CC[C@]3(C)[C@H]3CC[C@]45C[C@]4(CC[C@H]5[C@@H](C)C[C@@H](O)[C@@H]4OC4(C)C)[C@@]32C)[C@H](O)[C@@H](O)[C@@H]1O [CUMINGIANOSIDE E]	TGI	6 µM
